- Tested on: FLT3 (human), P36888 [ITD]
- Sequence (P36888 whole entry, looked up, change not shown): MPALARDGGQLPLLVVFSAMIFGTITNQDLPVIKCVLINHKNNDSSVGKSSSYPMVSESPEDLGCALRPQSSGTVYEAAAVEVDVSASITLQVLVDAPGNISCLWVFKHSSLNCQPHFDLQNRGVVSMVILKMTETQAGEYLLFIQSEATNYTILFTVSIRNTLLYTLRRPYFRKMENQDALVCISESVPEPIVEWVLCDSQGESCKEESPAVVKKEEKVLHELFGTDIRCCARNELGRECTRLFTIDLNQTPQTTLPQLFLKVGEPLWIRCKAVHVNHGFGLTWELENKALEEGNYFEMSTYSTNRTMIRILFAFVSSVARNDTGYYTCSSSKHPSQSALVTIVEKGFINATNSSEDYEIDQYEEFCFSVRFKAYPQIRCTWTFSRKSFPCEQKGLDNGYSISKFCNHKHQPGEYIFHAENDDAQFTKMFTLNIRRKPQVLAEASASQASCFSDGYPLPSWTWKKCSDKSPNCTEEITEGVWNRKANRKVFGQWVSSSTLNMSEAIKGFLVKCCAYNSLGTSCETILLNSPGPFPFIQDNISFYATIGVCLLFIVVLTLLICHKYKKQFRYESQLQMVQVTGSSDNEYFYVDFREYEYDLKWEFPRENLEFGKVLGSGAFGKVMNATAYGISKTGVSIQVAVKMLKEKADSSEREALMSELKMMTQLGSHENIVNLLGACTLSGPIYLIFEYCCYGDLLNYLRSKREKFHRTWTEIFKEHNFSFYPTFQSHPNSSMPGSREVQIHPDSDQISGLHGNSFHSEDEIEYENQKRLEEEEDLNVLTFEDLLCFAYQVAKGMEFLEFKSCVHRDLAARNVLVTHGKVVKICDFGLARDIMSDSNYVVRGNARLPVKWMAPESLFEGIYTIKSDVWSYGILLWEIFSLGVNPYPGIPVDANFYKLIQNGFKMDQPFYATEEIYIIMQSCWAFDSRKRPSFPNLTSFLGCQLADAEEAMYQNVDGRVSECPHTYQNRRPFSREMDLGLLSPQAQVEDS
- assay-summary: KINOMEscan competition binding
- condition-details: compound 10.0 µM
reported-metric: kinase still bound, per cent of control (%)
Numeric only. Scale: %

Qu. kinase still bound, per cent of control for OCCCNc1cc(-c2ccnc(Nc3cccc(Cl)c3)n2)ccn1 ?
Ans. 100

Qu. kinase still bound, per cent of control for C=CC(=O)Nc1cc(NC(=O)c2ccc(C)c(NC(=O)c3ccno3)c2)cc(C(F)(F)F)c1 ?
Ans. 99

Qu. kinase still bound, per cent of control for C=CC(=O)Nc1ccc(C(=O)c2sc(Nc3ccc(N4CCN(C)CC4)cc3OC)nc2N)cc1 ?
Ans. 73

Qu. kinase still bound, per cent of control for O=C1Nc2ccc(I)cc2/C1=C/c1cc(Br)c(O)c(Br)c1 ?
Ans. 33

Qu. kinase still bound, per cent of control for O=C(Nc1cccc(Nc2ncc(Br)c(NCCc3cnc[nH]3)n2)c1)N1CCCC1 ?
Ans. 0

Qu. kinase still bound, per cent of control for CCCS(=O)(=O)Nc1ccc(F)c(C(=O)c2c[nH]c3ncc(Cl)cc23)c1F ?
Ans. 68

Qu. kinase still bound, per cent of control for CC1=C(C(=O)Nc2cc3cn[nH]c3cc2F)C(c2ccc(C(F)(F)F)cc2)CC(=O)N1 (stereo not given) ?
Ans. 83

Qu. kinase still bound, per cent of control for CCN(CCO)CCCOc1ccc2c(Nc3cc(CC(=O)Nc4cccc(F)c4)[nH]n3)ncnc2c1 ?
Ans. 2.5

Qu. kinase still bound, per cent of control for CCc1nc(-c2cccc(C)c2)c(-c2ccnc(NC(=O)c3ccccc3)c2)s1 ?
Ans. 50

Qu. kinase still bound, per cent of control for O=C(NOC[C@H](O)CO)c1ccc(F)c(F)c1Nc1ccc(I)cc1F ?
Ans. 100

###

- target-or-system: FGFR2 (human) (UniProt P21802)
- Sequence (P21802 whole entry, looked up): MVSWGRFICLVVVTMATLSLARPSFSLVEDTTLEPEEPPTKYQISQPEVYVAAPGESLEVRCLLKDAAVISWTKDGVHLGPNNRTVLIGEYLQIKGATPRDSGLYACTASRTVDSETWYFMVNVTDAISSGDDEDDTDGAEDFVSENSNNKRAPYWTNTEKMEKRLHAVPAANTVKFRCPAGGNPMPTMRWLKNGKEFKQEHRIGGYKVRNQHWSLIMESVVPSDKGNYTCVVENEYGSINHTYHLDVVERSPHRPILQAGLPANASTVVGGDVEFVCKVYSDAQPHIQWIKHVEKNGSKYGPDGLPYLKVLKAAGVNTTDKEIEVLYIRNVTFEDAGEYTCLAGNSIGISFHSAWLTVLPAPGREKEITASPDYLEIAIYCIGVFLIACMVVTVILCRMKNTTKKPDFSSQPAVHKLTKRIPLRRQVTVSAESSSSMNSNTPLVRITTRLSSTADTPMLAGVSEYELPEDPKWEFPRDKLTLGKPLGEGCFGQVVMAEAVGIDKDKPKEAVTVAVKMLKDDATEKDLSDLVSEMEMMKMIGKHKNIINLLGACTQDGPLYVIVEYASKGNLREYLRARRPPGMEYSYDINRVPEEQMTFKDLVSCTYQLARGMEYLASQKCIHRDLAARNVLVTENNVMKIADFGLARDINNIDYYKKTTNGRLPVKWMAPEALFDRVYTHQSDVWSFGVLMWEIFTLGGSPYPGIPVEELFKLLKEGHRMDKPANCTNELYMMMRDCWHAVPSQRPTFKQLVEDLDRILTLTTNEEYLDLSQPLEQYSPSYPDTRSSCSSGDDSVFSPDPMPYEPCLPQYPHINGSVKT
- assay-summary: KINOMEscan competition binding
- condition-details: compound 10.0 µM
Hi there, I'd appreciate the recorded kinase still bound, per cent of control for every entry that follows.
Lab note: write values as number then unit, every time.

Qu. kinase still bound, per cent of control for Nc1ccc(-c2ccc3ncc4ccc(=O)n(-c5cccc(C(F)(F)F)c5)c4c3c2)cn1 ?
Ans. 90%

Qu. kinase still bound, per cent of control for C=CC(=O)Nc1cccc(Oc2nc(Nc3ccc(N4CCN(C)CC4)cc3OC)ncc2Cl)c1 ?
Ans. 100%

Qu. kinase still bound, per cent of control for COc1cc(C(=O)NC2CCN(C)CC2)ccc1Nc1ncc2c(n1)N(C1CCCC1)CCC(=O)N2C(C)C ?
Ans. 100%

Qu. kinase still bound, per cent of control for COc1cc(N2CCN(C)CC2)ccc1Nc1nc(N)c(C(=O)c2c(Cl)cccc2Cl)s1 ?
Ans. 91%

Qu. kinase still bound, per cent of control for O=C(O)c1ccc(Nc2ncc3c(n2)-c2ccc(Cl)cc2C(c2c(F)cccc2F)=NC3)cc1 ?
Ans. 7.7%

Qu. kinase still bound, per cent of control for O=C(NC1CC1)c1cccc(-c2ccc3c(NC(=O)C4CC4)n[nH]c3c2)c1 ?
Ans. 100%

Qu. kinase still bound, per cent of control for CCC(=O)N1CCN(c2ccc(-n3c(=O)ccc4cnc5ccc(-c6cnc7ccccc7c6)cc5c43)cc2C(F)(F)F)CC1 ?
Ans. 55%

Qu. kinase still bound, per cent of control for Cn1c(=O)n(-c2ccc(C(C)(C)C#N)cc2)c2c3cc(-c4cnc5ccccc5c4)ccc3ncc21 ?
Ans. 100%

Qu. kinase still bound, per cent of control for Cc1ccc2nc(NCCN)c3ncc(C)n3c2c1 ?
Ans. 100%

Qu. kinase still bound, per cent of control for C=CC(=O)Nc1cccc(Nc2nc(N[C@H]3CC[C@H](N(C)C)CC3)nc3c2ncn3C(C)C)c1 ?
Ans. 62%

###

- target-or-system: CDK4 CCND1 (human) (UniProt P11802+P24385)
- Sequence (P11802 whole entry, looked up): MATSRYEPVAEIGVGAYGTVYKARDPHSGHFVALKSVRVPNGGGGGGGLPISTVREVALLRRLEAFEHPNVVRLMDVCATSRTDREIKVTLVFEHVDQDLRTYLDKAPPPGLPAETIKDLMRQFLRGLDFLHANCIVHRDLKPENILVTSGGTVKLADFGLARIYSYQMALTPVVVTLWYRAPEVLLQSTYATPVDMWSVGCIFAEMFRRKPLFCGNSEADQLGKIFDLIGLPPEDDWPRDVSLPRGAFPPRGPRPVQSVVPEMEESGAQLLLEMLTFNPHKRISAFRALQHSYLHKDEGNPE
- Sequence (P24385 whole entry, looked up): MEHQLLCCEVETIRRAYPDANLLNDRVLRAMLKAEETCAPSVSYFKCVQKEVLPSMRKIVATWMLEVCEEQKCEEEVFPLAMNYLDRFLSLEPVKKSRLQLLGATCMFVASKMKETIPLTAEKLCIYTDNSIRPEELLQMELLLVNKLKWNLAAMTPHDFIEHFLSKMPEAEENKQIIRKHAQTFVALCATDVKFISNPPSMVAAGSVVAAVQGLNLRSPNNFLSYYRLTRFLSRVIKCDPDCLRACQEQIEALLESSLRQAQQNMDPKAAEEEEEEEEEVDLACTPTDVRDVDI
- assay-summary: KINOMEscan competition binding
- condition-details: compound 10.0 µM
Hi there, I'd appreciate the recorded kinase still bound, per cent of control for every entry that follows.
Numeric only. Scale: %

Qu. kinase still bound, per cent of control for CCCS(=O)(=O)Nc1ccc(F)c(C(=O)c2c[nH]c3ncc(-c4ccc(Cl)cc4)cc23)c1F ?
Ans. 52

Qu. kinase still bound, per cent of control for CCC(=O)N1CCN(c2ccc(-n3c(=O)ccc4cnc5ccc(-c6cnc7ccccc7c6)cc5c43)cc2C(F)(F)F)CC1 ?
Ans. 100

Qu. kinase still bound, per cent of control for O=C(NOC[C@H](O)CO)c1ccc(F)c(F)c1Nc1ccc(I)cc1F ?
Ans. 93

Qu. kinase still bound, per cent of control for Cc1ccc(NC(=O)c2cccc(C(C)(C)C#N)c2)cc1Nc1ccc2ncn(C)c(=O)c2c1 ?
Ans. 61

Qu. kinase still bound, per cent of control for C=CC(=O)Nc1cccc(Nc2nc(N[C@H]3CC[C@H](N(C)C)CC3)nc3c2ncn3C(C)C)c1 ?
Ans. 40

###

- target-or-system: MAP2K2 (human) (UniProt P36507)
- Sequence (P36507 whole entry, looked up): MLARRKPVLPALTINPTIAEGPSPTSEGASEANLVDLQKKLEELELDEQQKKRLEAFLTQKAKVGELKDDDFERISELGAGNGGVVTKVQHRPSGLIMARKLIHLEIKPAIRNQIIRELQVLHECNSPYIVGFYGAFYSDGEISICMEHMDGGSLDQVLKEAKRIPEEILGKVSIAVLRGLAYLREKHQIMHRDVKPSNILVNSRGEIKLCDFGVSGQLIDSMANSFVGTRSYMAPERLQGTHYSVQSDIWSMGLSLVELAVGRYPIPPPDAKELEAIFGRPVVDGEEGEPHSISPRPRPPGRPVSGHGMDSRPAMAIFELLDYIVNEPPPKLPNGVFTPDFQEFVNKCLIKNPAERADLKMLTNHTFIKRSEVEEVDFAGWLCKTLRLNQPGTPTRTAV
- assay-summary: KINOMEscan competition binding
- condition-details: compound 10.0 µM
Hi there, I'd appreciate the recorded kinase still bound, per cent of control for every entry that follows.
Numeric only. Scale: %

Qu. kinase still bound, per cent of control for Cc1ccc(C(=O)Nc2cccc(C(F)(F)F)c2)cc1Nc1cncc(C(N)=O)c1 ?
Ans. 100

Qu. kinase still bound, per cent of control for CCN1CCN(Cc2ccc(Nc3ncc4c(n3)N(C)c3ccccc3C(=O)N4C)cc2C(F)(F)F)CC1 ?
Ans. 89

Qu. kinase still bound, per cent of control for O=C(O)c1ccc(Nc2ncc3c(n2)-c2ccc(Cl)cc2C(c2c(F)cccc2F)=NC3)cc1 ?
Ans. 99

Qu. kinase still bound, per cent of control for C=CC(=O)Nc1cccc(Nc2nc(N[C@H]3CC[C@H](N(C)C)CC3)nc3c2ncn3C(C)C)c1 ?
Ans. 100

Qu. kinase still bound, per cent of control for CC[C@@H]1C(=O)N(C)c2cnc(Nc3ccc(C(=O)NC4CCN(C)CC4)cc3OC)nc2N1C1CCCC1 ?
Ans. 100

Qu. kinase still bound, per cent of control for CCOc1cc2ncc(C#N)c(Nc3ccc(OCc4ccccn4)c(Cl)c3)c2cc1NC(=O)/C=C/CN(C)C ?
Ans. 0.5

Qu. kinase still bound, per cent of control for C=CC(=O)Nc1cc(NC(=O)c2ccc(C)c(NC(=O)c3ccno3)c2)cc(C(F)(F)F)c1 ?
Ans. 93

###

- target-or-system: TAOK2 (human)
- assay-summary: KINOMEscan competition binding
- condition-details: compound 10.0 µM
Hi there, I'd appreciate the recorded kinase still bound, per cent of control for every entry that follows.
Numeric only. Scale: %

Qu. kinase still bound, per cent of control for CCN1CCN(Cc2ccc(Nc3ncc4c(n3)N(C)c3ccccc3C(=O)N4C)cc2C(F)(F)F)CC1 ?
Ans. 0.1

Qu. kinase still bound, per cent of control for CCOc1cc2ncc(C#N)c(Nc3ccc(OCc4ccccn4)c(Cl)c3)c2cc1NC(=O)/C=C/CN(C)C ?
Ans. 92

Qu. kinase still bound, per cent of control for CCC(=O)N1CCN(c2ccc(-n3c(=O)ccc4cnc5ccc(-c6cnc7ccccc7c6)cc5c43)cc2C(F)(F)F)CC1 ?
Ans. 84

Qu. kinase still bound, per cent of control for Nc1ccc(-c2ccc3ncc4ccc(=O)n(-c5cccc(C(F)(F)F)c5)c4c3c2)cn1 ?
Ans. 92

Qu. kinase still bound, per cent of control for COc1cc(N2CCN(C)CC2)ccc1Nc1nc(N)c(C(=O)c2c(Cl)cccc2Cl)s1 ?
Ans. 8.2

Qu. kinase still bound, per cent of control for Cc1ccc2nc(NCCN)c3ncc(C)n3c2c1 ?
Ans. 70

Qu. kinase still bound, per cent of control for C[C@@H](Oc1cc(-n2cnc3ccc(CN4CCN(C)CC4)cc32)sc1C(N)=O)c1ccccc1C(F)(F)F ?
Ans. 94

Qu. kinase still bound, per cent of control for C=CC(=O)Nc1cccc(Nc2nc(N[C@H]3CC[C@H](N(C)C)CC3)nc3c2ncn3C(C)C)c1 ?
Ans. 66

Qu. kinase still bound, per cent of control for N#Cc1c(NC(=O)c2cccc3ccccc23)sc2c1CCCC2 ?
Ans. 100

###

- target-or-system: ABL1 (human)
- assay-summary: KINOMEscan competition binding
- condition-details: compound 10.0 µM
reported-metric: kinase still bound, per cent of control (%)
Numeric only. Scale: %

Qu. kinase still bound, per cent of control for CC[C@@H]1C(=O)N(C)c2cnc(Nc3ccc(C(=O)NC4CCN(C)CC4)cc3OC)nc2N1C1CCCC1 ?
Ans. 100

Qu. kinase still bound, per cent of control for CCOc1cc2ncc(C#N)c(Nc3ccc(OCc4ccccn4)c(Cl)c3)c2cc1NC(=O)/C=C/CN(C)C ?
Ans. 100

Qu. kinase still bound, per cent of control for C=CC(=O)Nc1cccc(Oc2nc(Nc3ccc(N4CCN(C)CC4)cc3OC)ncc2Cl)c1 ?
Ans. 100

Qu. kinase still bound, per cent of control for CCC(=O)N1CCN(c2ccc(-n3c(=O)ccc4cnc5ccc(-c6cnc7ccccc7c6)cc5c43)cc2C(F)(F)F)CC1 ?
Ans. 60

Qu. kinase still bound, per cent of control for COc1cc(C(=O)NC2CCN(C)CC2)ccc1Nc1ncc2c(n1)N(C1CCCC1)CCC(=O)N2C(C)C ?
Ans. 100

Qu. kinase still bound, per cent of control for CCCS(=O)(=O)Nc1ccc(F)c(C(=O)c2c[nH]c3ncc(-c4ccc(Cl)cc4)cc23)c1F ?
Ans. 57

Qu. kinase still bound, per cent of control for COc1cc(C(=O)NC2CCN(C)CC2)ccc1Nc1ncc2c(n1)N(C1CCCC1)C(C)CC(=O)N2C (stereo not given) ?
Ans. 100

Qu. kinase still bound, per cent of control for OCCCNc1cc(-c2ccnc(Nc3cccc(Cl)c3)n2)ccn1 ?
Ans. 100

Qu. kinase still bound, per cent of control for Cc1ccc(C(=O)Nc2cccc(C(F)(F)F)c2)cc1Nc1cncc(C(N)=O)c1 ?
Ans. 100

Qu. kinase still bound, per cent of control for Cn1c(=O)n(-c2ccc(C(C)(C)C#N)cc2)c2c3cc(-c4cnc5ccccc5c4)ccc3ncc21 ?
Ans. 100

The reported measurements were obtained from the kinase profiling compilation of Christmann-Franck et al. (2016).
